Parameter: IC50. Scope: all listed entries.
biological target: Glutamate NMDA receptor; experiment: Displacement of [3H]DCKA from N-methyl-D-aspartate glutamate receptor of rat cortical membrane
Enter your answer as a number in µM; do not include the unit.

O=C(O)c1cn2c3c(nc(O)c2n1)-c1ccc(F)cc1C3: 0.455
CNC(=O)Nc1ccc2c(c1)C(CC(=O)O)c1c-2nc(O)c2nccn12 (racemic): 10

Now let's try a different one.
Task: Reported IC50 for "Nc1ccc2c(c1)Cc1c-2nc(O)c2nc(C(=O)O)cn12" : what is it?
Output: 6.9
